Here the recorded growth is given for each entry.
System: U251 CNS
Assay: NCI-60 one-dose screen, 48 h (100 = growth as untreated, 0 = no growth, -100 = all killed)
Conditions: 10 µM unless noted
Protocol: Growth inhibition of the U251 human tumor cell line is measured as a screen for anti-cancer activity. Cells are grown in 96 well plates and exposed to the test compound for 48 hours. Compounds are tested at a single concentration, which is 10^-5 M for most compounds. The reported endpoint is percent growth (GI% or GIPRCNT), where numbers from 0 - 100% represent growth inhibition, and numbers from -100% - 0 represent cell death. For example, a value of 40 represents 60% growth inhibition. […]
About 83,000 compounds went through this panel and 20% of them were active in at least one assay; those are over-represented in the sample as a whole.

{"COMPOUND": "COc1cc(-c2nn(C(C)(C)C)cc2-c2ccnc(NCCCNS(=O)(=O)c3ccc(C)cc3)n2)ccc1Cl", "growth [%]": 92.3}
{"COMPOUND": "C=CCn1c(SCC(=O)Nc2ccc(C(=O)/C=C/c3ccc(C)cc3)cc2)nnc1-c1c[nH]c2ccccc12", "growth [%]": 92.2}
{"COMPOUND": "COc1cc(-c2nn(C(C)(C)C)cc2-c2ccnc(NCCCNS(=O)(=O)c3ccc(F)cc3)n2)ccc1Cl", "growth [%]": 89.3}
{"COMPOUND": "Cc1ccc(-c2cc3nc(C(Cl)Cl)nc(C)n3n2)cc1", "growth [%]": 108}
{"COMPOUND": "CCc1ccc(SC2c3ccc(N(CC)CC)cc3Oc3nc(N)c(C#N)c(N)c32)cc1 (stereo not given)", "growth [%]": -71.3}
{"COMPOUND": "COc1ccc(NC(=O)CSc2nnc(-c3ccc4nc(-c5ccccc5)[nH]c4c3)o2)cc1", "growth [%]": 102}
{"COMPOUND": "Fc1ccc(-c2cc3nc(C(Cl)Cl)nc(-c4ccc(F)cc4)n3n2)cc1", "growth [%]": -39.8}
{"COMPOUND": "NC(N)=Nc1ccc(Oc2cccc(Nc3ccc(Cl)c(C(F)(F)F)c3)c2)cc1", "growth [%]": -27.6}
{"COMPOUND": "Nc1nc(Nc2ccccc2SSc2ccccc2Nc2nc(N)nc(-c3cccc(Br)c3)n2)nc(-c2cccc(Br)c2)n1", "growth [%]": -43.9}
{"COMPOUND": "C#CCOC(=O)[C@@H]1CCCN1CC#C", "growth [%]": 81.4}
{"COMPOUND": "O=C(O)c1ccc(-n2cc(CNc3cccc(Cl)c3)c(-c3ccc(F)cc3)n2)cc1", "growth [%]": 101}
{"COMPOUND": "C=C(C=O)[C@@H]1CC[C@]2(C)[C@H](C(=O)C=C3[C@H]4C[C@](C)(C(=O)OC)CC[C@]4(C)CC[C@]32C)[C@@]1(C)CCC#N", "growth [%]": 2.98}
{"COMPOUND": "Cn1ccnc1C(=O)/C=C/c1ccc(NC(=O)c2ccc(F)cc2)cc1", "growth [%]": 23.3}
{"COMPOUND": "CC/C(=C/c1cc(OC)ccc1O)c1ccc2cc(OC)ccc2[o+]1", "growth [%]": 66.5}
{"COMPOUND": "COc1ccc(NC2=C(Cl)C(=O)c3nc(C)ccc3C2=O)cc1OC", "growth [%]": 106}
{"COMPOUND": "Cc1cccc2c3c(sc12)C(c1ccc(Cl)cc1)c1c(nc(CC(=O)Nc2ccccc2)[nH]c1=O)O3 (stereo not given)", "growth [%]": 54.2}
{"COMPOUND": "COc1cc(-c2nc(SC(C)C)n(C(C)C)c(=O)c2C#N)ccc1OCc1ccccc1", "growth [%]": 32.7}
{"COMPOUND": "Clc1ccc(N/N=c2/oc3ccccc3cc2-c2cc3ccccc3[nH]2)cc1", "growth [%]": 80.2}
{"COMPOUND": "O=C(Cn1cc(-c2ccccc2)nn1)Nc1nc(-c2ccc(Cl)cc2)cs1", "growth [%]": 105}
{"COMPOUND": "Cc1ccc(-c2nnc(SCc3ccc(O)c4ncccc34)n2-c2ccccc2)cc1", "growth [%]": -2.5}

----------
system: SF-539 CNS; experiment: NCI-60 one-dose screen, 48 h (100 = growth as untreated, 0 = no growth, -100 = all killed); settings: 10 µM unless noted
About 83,000 compounds went through this panel and 20% of them were active in at least one assay; those are over-represented in the sample as a whole.
Below is a list of entries, each paired with its recorded growth value.

{"COMPOUND": "O=C(NNc1nc2cc(F)ccc2n2c(CN3CC4CNCC4C3)ccc12)c1cnccn1 (configuration not stated)", "growth (%)": 15.1}
{"COMPOUND": "COc1ccc([C@H]2c3[nH]c4ccccc4c3C[C@H]3C(=O)N(C4CCN(Cc5c(Cl)cccc5Cl)CC4)CC(=O)N23)c(OC)c1", "growth (%)": 101}
{"COMPOUND": "COc1ccc(N2CCN(C3=C(Cl)C(=O)C(C)=C(C)C3=O)CC2)cc1", "growth (%)": 105}
{"COMPOUND": "COc1cc2oc(-c3cccc(NC(=O)c4cc(N)ccc4Cl)c3)cc(=O)c2c(OC)c1OC", "growth (%)": 94.8}
{"COMPOUND": "CC(=O)c1nnn(-c2c(C(=O)n3nc(C)cc3C)sc(=S)n2-c2ccccc2)c1C", "growth (%)": 96.6}
{"COMPOUND": "O=C(CN1CCN(c2cc(=O)n(-c3ccccc3)c3ccccc23)CC1)Nc1nc(-c2ccc(Cl)cc2)cs1", "growth (%)": 76.1}
{"COMPOUND": "C=CC(=O)N1CC=C(c2cc3c(N[C@H](C)c4ccccc4)ncnc3[nH]2)CC1", "growth (%)": 60.1}
{"COMPOUND": "C=CCn1c(SCC(=O)Nc2ccc(C(=O)/C=C/c3ccc(C)cc3)cc2)nnc1-c1c[nH]c2ccccc12", "growth (%)": 90.9}
{"COMPOUND": "CS(=O)(=O)c1ccc(-c2nn(-c3ccccc3)cc2/C=N/NC(=O)c2nc(N)n[nH]2)cc1", "growth (%)": 99.3}
{"COMPOUND": "O=C1CCC(N2C(=O)c3ccc(NS(=O)(=O)c4ccccc4OC(F)(F)F)cc3C2=O)C(=O)N1 (configuration not stated)", "growth (%)": 79.7}
{"COMPOUND": "CNC(=O)c1c(NC(=O)c2cccc(C(F)(F)F)c2F)sc2c1CCC(=O)C2", "growth (%)": -56}
{"COMPOUND": "NS(=O)(=O)c1ccc(Nc2nc(SCC(=O)c3ccc(Cl)cc3)nc3c2CCCC3)cc1", "growth (%)": 62.3}

----------
system: SF-295 CNS; assay: NCI-60 one-dose screen, 48 h (100 = growth as untreated, 0 = no growth, -100 = all killed); details: 10 µM unless noted
This is part of a sample that, as a whole, favours compounds with a hit. Of some 83,000 tested, about 20% had one in any assay.

{"COMPOUND": "CC(=O)c1nnn(-c2c(C(=O)n3nc(C)cc3C)sc(=S)n2-c2ccccc2)c1C", "UNIT ABBREVIATION": "%", "growth": 109}
{"COMPOUND": "NS(=O)(=O)c1ccc(-n2cc(CN3CCNCC3)nn2)cc1", "UNIT ABBREVIATION": "%", "growth": 106}
{"COMPOUND": "O=C(Nc1ccc(Br)cc1)Nc1nc2ccc([N+](=O)[O-])cc2s1", "UNIT ABBREVIATION": "%", "growth": -40.1}
{"COMPOUND": "COc1ccc(N2C(=O)c3cc(Cl)ccc3NC2SCc2ccccc2)cc1 (stereo not drawn)", "UNIT ABBREVIATION": "%", "growth": 102}
{"COMPOUND": "ClC(Cl)c1nc(-c2ccco2)n2nc(-c3ccccc3)cc2n1", "UNIT ABBREVIATION": "%", "growth": -15.4}
{"COMPOUND": "CC[C@@H](CO)Nc1ccc2ncc(C#Cc3cncc(C(=O)Nc4ccc(CN5CCN(C)CC5)c(C(F)(F)F)c4)c3)n2n1", "UNIT ABBREVIATION": "%", "growth": -84.7}
{"COMPOUND": "O=C1CCCC2=C1C(c1c[nH]c3ccc(Br)cc13)Cc1cc(Br)ccc1N2 (stereo not drawn)", "UNIT ABBREVIATION": "%", "growth": -9.43}
{"COMPOUND": "Nc1nc(Nc2ccccc2SSc2ccccc2Nc2nc(N)nc(-c3ccc4ccccc4c3)n2)nc(-c2ccc3ccccc3c2)n1", "UNIT ABBREVIATION": "%", "growth": 67.7}

----------
tested on: M14 melanoma; experiment: NCI-60 one-dose screen, 48 h (100 = growth as untreated, 0 = no growth, -100 = all killed); settings: 10 µM unless noted
Compounds without any hit were thinned out: in the full panel of roughly 83,000, 20% have a hit.
Label Met when growth is at or above 10%; anything below gets Not met.

{"COMPOUND": "COc1ccc2[nH]cc(-c3csc4nc(-c5ccccc5)cn34)c2c1", "TARGET OR TEST SYSTEM": "M14 melanoma", "CATEGORY LABEL": "Met"}
{"COMPOUND": "COc1ccccc1-n1cc(C#N)c(N)c1C(=O)c1ccc(C)cc1", "TARGET OR TEST SYSTEM": "M14 melanoma", "CATEGORY LABEL": "Met"}
{"COMPOUND": "CCc1cccc2c3c(sc12)C(c1ccc(Cl)cc1)C(C#N)=C(/N=C/c1ccc(Cl)cc1)O3 (centres undefined)", "TARGET OR TEST SYSTEM": "M14 melanoma", "CATEGORY LABEL": "Not met"}
{"COMPOUND": "Cn1cc(-c2nc(N)nnc2-c2c[nH]c3ccccc23)c2cc(Br)ccc21", "TARGET OR TEST SYSTEM": "M14 melanoma", "CATEGORY LABEL": "Not met"}
{"COMPOUND": "C#CC(=O)N(c1ccc(OC)cc1OC)C(C(=O)NCC(=O)OCC)c1cccs1 (centres undefined)", "TARGET OR TEST SYSTEM": "M14 melanoma", "CATEGORY LABEL": "Met"}
{"COMPOUND": "CC(C)(C)c1ccc(CC(=O)Nc2sc3c(c2C(N)=O)CCC(=O)C3)cc1", "TARGET OR TEST SYSTEM": "M14 melanoma", "CATEGORY LABEL": "Not met"}
{"COMPOUND": "Cc1cc(C)c2sc(=O)n(Cc3nnc(SCCC(=O)O)o3)c2n1", "TARGET OR TEST SYSTEM": "M14 melanoma", "CATEGORY LABEL": "Met"}
{"COMPOUND": "NC(N)=Nc1ccc(Oc2cccc(Nc3ccc(Cl)c(C(F)(F)F)c3)c2)cn1", "TARGET OR TEST SYSTEM": "M14 melanoma", "CATEGORY LABEL": "Not met"}
{"COMPOUND": "O=C(Cn1cc[n+](CC(=O)c2ccc(-c3ccccc3)cc2)c1)Nc1cccc2cccnc12", "TARGET OR TEST SYSTEM": "M14 melanoma", "CATEGORY LABEL": "Met"}
{"COMPOUND": "CNC(=O)c1cc(Oc2ccc3nc(NC(=O)c4ccc(N5CCOCC5)c(C(F)(F)F)c4)sc3c2)ccn1", "TARGET OR TEST SYSTEM": "M14 melanoma", "CATEGORY LABEL": "Met"}
{"COMPOUND": "O=C(CSc1nc2ccccc2c(=O)n1-c1ccccc1)Nc1ccc(-c2nc3ccc([N+](=O)[O-])cc3[nH]2)cc1", "TARGET OR TEST SYSTEM": "M14 melanoma", "CATEGORY LABEL": "Met"}
{"COMPOUND": "CCNC(=O)N1CCc2cc(OC)c(OCCc3ccc(OC)nc3)cc2C1c1ccc(C)cc1C (centres undefined)", "TARGET OR TEST SYSTEM": "M14 melanoma", "CATEGORY LABEL": "Met"}
{"COMPOUND": "COC(=O)c1[nH]nc2c1C1(C(=O)N(C)c3ccccc31)C(C#N)=C(N)O2 (centres undefined)", "TARGET OR TEST SYSTEM": "M14 melanoma", "CATEGORY LABEL": "Met"}
{"COMPOUND": "O=S(=O)(NC1c2ccccc2C[C@H]1O)c1ccc(Cl)cc1Cl (some centres undefined)", "TARGET OR TEST SYSTEM": "M14 melanoma", "CATEGORY LABEL": "Met"}

Where do the numbers come from? From PubChem BioAssay (NCI).
